src = patent US20120122848A1

Reported log10 of CC50 at 24 h by item:
protocolDetails: Cell cytotoxicity test: protection of HT22 cells against glutamate toxicity (EC50) and cytotoxicity of the compounds (CC50), MTT
Type: cell-based, mouse
recordedConditions: mouse, HT22 cells (mouse hippocampal neuron)
Protocol: HT22 cells (mouse hippocampal neuron, Salk Institute and KRIBB) were plated in a 96-well plate at a density of 3×10^3 cells/well for 16 hrs before treatment. […] Then, the cells were treated with 3-(4,5-dimethylthiazol-2-yl)-2,5-diphenyltetrazolium bromide (MTT, Sigma®) for 4 hrs and absorbance of each well was measured with a plate reader at a wavelength of 450 nm. […]
Counter-ions that a name gives are not always drawn.
Hello, just confirming the data are log10 of CC50 at 24 h with units of µM.

Reported log10 of CC50 at 24 h ( Oc1ccccc1Nc1cc2c(cc1O)[C@]13CCCC[C@@H]1[C@H](C2)NCC3 [Example 43, TFA salt] ) = 1.02

Reported log10 of CC50 at 24 h ( CCOC(=O)Nc1ccccc1Nc1cc2c(cc1O)[C@]13CCCC[C@@H]1[C@H](C2)NCC3 [Example 117, TFA salt] ) = 1.56

Reported log10 of CC50 at 24 h ( Cc1ccc(Nc2cc3c(cc2O)[C@]24CCCC[C@@H]2[C@H](C3)NCC4)cc1 [Example 28, TFA salt] ) = 0.26

Reported log10 of CC50 at 24 h ( Oc1cc2c(cc1Nc1cccc3cccnc13)C[C@@H]1NCC[C@]23CCCC[C@H]13 [Example 66, TFA salt] ) = 0.46

Reported log10 of CC50 at 24 h ( COc1ccc(Nc2cc3c(cc2O)[C@]24CCCC[C@@H]2[C@H](C3)NCC4)c(OC)c1 [Example 40, TFA salt] ) = 0.86

Reported log10 of CC50 at 24 h ( Nc1ccccc1Nc1cc2c(cc1O)[C@]13CCCC[C@@H]1[C@H](C2)NCC3 [Example 106, TFA salt] ) = 1.34

Reported log10 of CC50 at 24 h ( Oc1cc2c(cc1Nc1ccc3c(c1)OCCO3)C[C@@H]1NCC[C@]23CCCC[C@H]13 [Example 37, TFA salt] ) = 1.15

Reported log10 of CC50 at 24 h ( O=S(=O)(Nc1ccccc1Nc1cc2c(cc1O)[C@]13CCCC[C@@H]1[C@H](C2)NCC3)c1ccccc1 [Example 113, TFA salt] ) = 0.48

Reported log10 of CC50 at 24 h ( CC1CCN(c2cc3c(cc2O)[C@]24CCCC[C@@H]2[C@H](C3)NCC4)CC1 [Example 19, TFA salt] ) = 0.91
